The reported numbers originate from patent US20200376136A1.

Item-by-item account of Avg F.A.B (fold above background)
Biological target: T1, human six-transmembrane epithelial antigen of prostate 2 (STEAP2) (human, UniProt Q8NFT2 1-490)
T1 construct: also called hSTEAP2
T1 sequence: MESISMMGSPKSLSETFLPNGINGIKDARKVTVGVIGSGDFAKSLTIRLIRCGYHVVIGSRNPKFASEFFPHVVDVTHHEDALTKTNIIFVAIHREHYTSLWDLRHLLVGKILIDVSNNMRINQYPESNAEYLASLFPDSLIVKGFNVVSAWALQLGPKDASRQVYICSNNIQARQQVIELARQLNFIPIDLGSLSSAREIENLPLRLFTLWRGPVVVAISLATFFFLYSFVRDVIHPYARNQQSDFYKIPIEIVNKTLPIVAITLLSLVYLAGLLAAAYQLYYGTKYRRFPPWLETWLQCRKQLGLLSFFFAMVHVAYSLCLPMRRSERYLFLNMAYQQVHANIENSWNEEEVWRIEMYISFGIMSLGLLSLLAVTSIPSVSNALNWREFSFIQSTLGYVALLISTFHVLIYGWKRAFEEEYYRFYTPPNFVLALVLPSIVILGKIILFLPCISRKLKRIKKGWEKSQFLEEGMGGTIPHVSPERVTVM
Experiment: FACS on C4-2 cells (endogenous STEAP2), MFI fold above unstained, average at 100-300 nM antibody
Number only, in fold above background; omit the unit.

{"binder": "H1H7814N (antibody, human IgG1, V domains shown) VH: QVQLVESGGGVVQPGRSLRLSCVASGFTISSYGMNWVRQAPGKGLEWVAVISYDGGNKYSVDSVKGRFTISRDNSKNTLYLQMNSLRAEDSAVYYCARGRYFDLWGRGTLVTVSS VL: DIQMTQSPSTLSASVGDRVTITCRASQSISSWLAWYQQKPGRAPNLLISKASSLKSGVPSRFSGSGSGTEFTLTVSSLQPDDFATYYCQQYYSYSYTFGQGTKLEIK", "value.units": "fold above background", "Avg F.A.B (fold above background)": 96}
{"binder": "H1H7810N (antibody, human IgG1, V domains shown) VH: QVQLVESGGGVVQPGRSLRLSCAVSGFTSSTYGMNWVRQAPGKGLEWVAVISYDGSNKYYADSVKGRFTISRDNSKNTLYLQMNSLRPEDTAVYYCARGRYFDLWGRGTLVTVSS VL: DIQMTQSPSTLSASVGDRVTITCRASQIISSWLAWYQQKPGKAPKLLIYKASSLASGVPSRFSGSGSGTEFTLTISSLQPDDFATYYCQQYKSYSYTFGQGTKLEIK", "value.units": "fold above background", "Avg F.A.B (fold above background)": 26}

Next, consider the following binder.
The binder listed as H1H7972P (antibody, human IgG1, V domains shown) VH: QVQLQQSGPGLVKPSQTLSLTCAISGDSVSSNSAAWNWIRQSPSRGLEWLGRTYYRSKWYNDYVVSVKSRIIFNPDTSKNQFSLQLNSVTPEDTAVYYCARVRQDYRSGPFDYWGQGTLVTVSS VL: EIVMTQSPVTLSVSPGERATLSCWASQSVSSSLAWYQQKPGQAPRLLIYGASTRATGIPARFSGSGSGTGFTLTISSLQSEDFAVYYCQQYNNWPFTFGPGTKVDIK has a reported Avg F.A.B (fold above background) of 119
